Values from patent US8088918B2

assaySummary: Metabolic stability, microsomal incubations without inhibitor
Type: in vitro ADME
measurementSetup: 10 μM, 0.5 mg/mL microsomal protein, incubation time 60 min
readoutLabel: Loss of parent compound with no ketoconazole (%)
Express it in %; write the number only.

Ask: Field request: Loss of parent compound with no ketoconazole (%) | item: CCOP(=O)(OCC)N(C)CCCN1c2ccccc2CCc2ccccc21
Result: 91.40

Ask: Entry under review: COC(=O)N(C)CCCN1c2ccccc2CCc2ccccc21 . Reported Loss of parent compound with no ketoconazole (%)?
Result: 87.25

Ask: Quick one: Loss of parent compound with no ketoconazole (%) of CCCOC(=O)N(C)CCCN1c2ccccc2CCc2ccccc21 ?
Result: 82.29

Ask: // query Loss of parent compound with no ketoconazole (%) value for entry CCCCCCCCOC(=O)N(C)CCCN1c2ccccc2CCc2ccccc21
Result: 74.17

Ask: Need Loss of parent compound with no ketoconazole (%) of CC(C)COC(=O)N(C)CCCN1c2ccccc2CCc2ccccc21 , thanks.
Result: 76.36

---

assaySummary: Metabolic stability, microsomal incubations with ketoconazole (CYP3A4 inhibitor)
Assay type: in vitro ADME
measurementSetup: 10 μM, 0.5 mg/mL microsomal protein, incubation time 30 min
readoutLabel: Loss of parent compound with ketoconazole (%)
Your answer is read as %, so omit the unit and give the number.

Ask: Which measured Loss of parent compound with ketoconazole (%) value corresponds to COC(=O)N(C)CCCN1c2ccccc2CCc2ccccc21 [RIC-5a] ?
Result: 27.65

Ask: Fill in the blank: the reported Loss of parent compound with ketoconazole (%) of CC(C)COC(=O)N(C)CCCN1c2ccccc2CCc2ccccc21 [RIC-5c] is ____.
Result: 6.36

Ask: Which measured Loss of parent compound with ketoconazole (%) value corresponds to CCCCCCCCOC(=O)N(C)CCCN1c2ccccc2CCc2ccccc21 [RIC-5d] ?
Result: 15.18

Ask: Query (compound): CCOP(=O)(OCC)N(C)CCCN1c2ccccc2CCc2ccccc21 [RIC-02] ; field requested: Loss of parent compound with ketoconazole (%)
Result: −17.26

Ask: Tell me the measured Loss of parent compound with ketoconazole (%) of CCCOC(=O)N(C)CCCN1c2ccccc2CCc2ccccc21 [RIC-5b] , please.
Result: 31.69

---

assaySummary: Metabolic stability, microsomal incubations with ketoconazole (CYP3A4 inhibitor)
Type: in vitro ADME
measurementSetup: 10 μM, 0.5 mg/mL microsomal protein, incubation time 60 min
What Loss of parent compound with ketoconazole (%) was measured for each of the following?
// units = %; emit number, no label

Ask: What value of Loss of parent compound with ketoconazole (%) has been recorded for this entry: CCOP(=O)(OCC)N(C)CCCN1c2ccccc2CCc2ccccc21 [RIC-02]
Result: 11.04

Ask: Suppose we examine the compound CCCCCCCCOC(=O)N(C)CCCN1c2ccccc2CCc2ccccc21 [RIC-5d] ; what Loss of parent compound with ketoconazole (%) value has been reported?
Result: 55.88

Ask: // Loss of parent compound with ketoconazole (%) lookup, key: CCCOC(=O)N(C)CCCN1c2ccccc2CCc2ccccc21 [RIC-5b]
Result: 50.21
